# Experimental system: IRAK4 (Homo sapiens)
# Construct: endogenous in cells; host or cells: THP-1 cells
# Sequence (Q9NWZ3 whole entry): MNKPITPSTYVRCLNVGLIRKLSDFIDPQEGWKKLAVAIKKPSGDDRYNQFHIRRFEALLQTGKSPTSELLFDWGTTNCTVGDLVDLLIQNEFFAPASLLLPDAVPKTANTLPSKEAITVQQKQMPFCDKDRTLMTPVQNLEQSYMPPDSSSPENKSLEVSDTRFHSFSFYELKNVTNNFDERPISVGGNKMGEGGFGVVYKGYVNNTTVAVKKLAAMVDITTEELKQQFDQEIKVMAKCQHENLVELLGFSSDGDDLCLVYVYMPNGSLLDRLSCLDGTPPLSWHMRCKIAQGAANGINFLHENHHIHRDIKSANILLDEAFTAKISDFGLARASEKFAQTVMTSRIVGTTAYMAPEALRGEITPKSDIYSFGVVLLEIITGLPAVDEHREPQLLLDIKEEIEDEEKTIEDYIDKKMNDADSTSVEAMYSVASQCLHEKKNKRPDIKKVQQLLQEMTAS
# Protocol details: LVL THP1 HTRF (THP1 Homogeneous Time Resolved Fluorescence)
# Format: cell-based
# Particulars: THP1 cells, 18 h incubation with compound, read-out: LVL THP1 HTRF EC50
Observed property: DC50 (nM)

Here are 3 compounds together with their reported answers.
C[C@H](C#N)Nc1cc(-n2ncc3cc(C#N)cnc32)ncc1-n1cc([C@H]2CC[C@](O)(CCN3CCN(c4ccc([C@@]5(C)CCC(=O)NC5=O)nc4)CC3)CC2)nn1 (single isomer, unassigned) [P-295] = 350
C[C@H](C#N)Nc1cc(-n2ncc3cc(C#N)c(N)nc32)ncc1C(=O)N[C@H]1CC[C@H](CCN2CCN(c3ccc(C4CCC(=O)NC4=O)cc3)C(C(F)(F)F)C2)CC1 (some centres unmarked) [P-181] = 112
C[C@H](C#N)Nc1cc(-n2ncc3cc(C#N)cnc32)ncc1-n1cc([C@H]2CC[C@H](CCN3CCC(c4ccc(N5CCC(=O)NC5=O)cc4)C3)CC2)nn1 (single isomer, unassigned) [P-497] = 239

A: C[C@H](C#N)Nc1cc(-n2ncc3cc(C#N)c(N)nc32)ncc1C(=O)N[C@H]1CC[C@H](CCN2CCN(c3ccc(C4CCC(=O)NC4=O)c(F)c3)[C@H](C)C2)CC1 (some centres unmarked)
B: C[C@H](C#N)Nc1cc(-n2ncc3cc(C#N)cnc32)ncc1-n1cc([C@H]2CC[C@H](CCN3CCC(c4ccc(NC5CCC(=O)NC5=O)cc4)CC3)CC2)nn1 (some centres unmarked)
Lookup: # compare DC50 for A vs B ; return the one with the smaller value Which one? Tell me its label.
Found: A

Origin of measurements: patent US20240109881A1
